# tested on: human CCR6 (Homo sapiens, UniProt P51684)
# Construct: expressed in transfected cells; host or cells: HEK-293
# Sequence (P51684 whole entry): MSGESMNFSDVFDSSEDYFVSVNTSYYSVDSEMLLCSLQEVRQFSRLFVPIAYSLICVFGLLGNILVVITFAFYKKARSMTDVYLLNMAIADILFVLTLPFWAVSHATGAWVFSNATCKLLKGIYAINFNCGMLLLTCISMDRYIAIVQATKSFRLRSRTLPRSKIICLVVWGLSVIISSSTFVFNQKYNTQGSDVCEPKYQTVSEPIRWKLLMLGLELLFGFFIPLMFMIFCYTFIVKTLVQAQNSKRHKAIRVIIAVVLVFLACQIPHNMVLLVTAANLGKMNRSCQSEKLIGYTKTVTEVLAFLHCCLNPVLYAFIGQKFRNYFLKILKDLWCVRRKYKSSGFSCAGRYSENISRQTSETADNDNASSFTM
# protocol description: FLIPR assay (inhibition of CCL20-induced calcium signal)
# Assay type: cell-based
# recorded conditions: HEK-293 cells expressing human CCR6; mean values where determined several times; read-out: FLIPR IC50
pIC50: −log10 of the molar value.
I would appreciate it if you labelled entries fulfilled when pIC50 is 7 or higher, otherwise not fulfilled.

[in] # bool: pIC50 of CC(C)c1ccc([C@](O)(c2cncc(-c3noc(C4CCN(S(=O)(=O)C5CCOCC5)CC4)n3)c2)C2(C)CN(C)C2)cc1 [Example 387] >= 7
[out] fulfilled

[in] # bool: pIC50 of COc1cccc(C(C)(O)CCc2cncc([C@@](O)(c3ccc(C(C)C)cc3)C3(C)CN(C)C3)c2)n1 (some centres unmarked) [Example 72] >= 7
[out] fulfilled

[in] # bool: pIC50 of COCCCc1ccc(C(O)(c2cncc(N3CCCC3)c2)C2(C)CN(C)C2)cc1 (centres unmarked) [Example 309] >= 7
[out] fulfilled

[in] # bool: pIC50 of CC(C)c1ccc([C@](O)(c2cnnc(N3Cc4ccccc4C3=O)c2)C2(C)CN(C)C2)cc1 [Example 444] >= 7
[out] fulfilled

[in] # bool: pIC50 of COCCOc1cncc(C(O)(c2ccc(C(C)C)cc2)C2(C)CN(C)C2)c1 (centres unmarked) [Example 247] >= 7
[out] not fulfilled

[in] # bool: pIC50 of CC(C)c1ccc([C@](O)(c2cccnc2)C2(C)CN(C)C2)cc1 [Example 293] >= 7
[out] not fulfilled

----------
# tested on: human CCR6 (Homo sapiens, UniProt P51684)
# Construct: expressed in transfected cells; host or cells: HEK-293
# protocol description: FLIPR assay (inhibition of CCL20-induced calcium signal)
# Type: cell-based
# recorded conditions: HEK-293 cells expressing human CCR6; mean values where determined several times; read-out: FLIPR IC50
Could you please report measured pIC50 for the items listed next?
Scale for pIC50: -log10 of concentration given in mol/L; no unit attached.

[in] Quote human CCR6 (Homo sapiens, UniProt P51684) pIC50 for entry CC(C)c1ccc([C@](O)(c2cnnc(C#CC(C)(C)N3CCCC3=O)c2)C2(C)CN(C)C2)cc1 [Example 664] .
[out] 6.68

[in] Quote human CCR6 (Homo sapiens, UniProt P51684) pIC50 for entry COC1CCC(Oc2cncc([C@@](O)(c3ccc(C(C)C)cc3)C3(C)CN(C)C3)c2)C1 (some centres unmarked) [Example 253] .
[out] 7.88

[in] Quote human CCR6 (Homo sapiens, UniProt P51684) pIC50 for entry CC(=O)NC(C)(C)C#Cc1cc([C@@](O)(c2ccc(C(C)C)cc2)C2(C)CN(C)C2)cnn1 [Example 663] .
[out] 6.00

[in] Quote human CCR6 (Homo sapiens, UniProt P51684) pIC50 for entry CC(=O)N1CCC[C@]1(C)C#Cc1cncc([C@@](O)(c2ccc(C(C)C)cc2)C2(C)CN(C)C2)c1 [Example 596] .
[out] 6.93

[in] Quote human CCR6 (Homo sapiens, UniProt P51684) pIC50 for entry COc1nc(C)cc(C(C)(O)C#Cc2cncc([C@@](O)(c3ccc(C(C)C)cc3)C3(C)CN(C)C3)c2)n1 (single isomer, unassigned) [Example 629] .
[out] 7.22

[in] Quote human CCR6 (Homo sapiens, UniProt P51684) pIC50 for entry CC(=O)N1CCC(C(C)(O)C#Cc2cncc([C@@](O)(c3ccc(C(C)C)cc3)C3(C)CN(C)C3)c2)CC1 (some centres unmarked) [Example 598] .
[out] 7.02

[in] Quote human CCR6 (Homo sapiens, UniProt P51684) pIC50 for entry CC(C)c1ccc([C@](O)(c2cncc(-c3noc(C4COC4)n3)c2)C2(C)CN(C3CC3)C2)cc1 [Example 453] .
[out] 7.24

[in] Quote human CCR6 (Homo sapiens, UniProt P51684) pIC50 for entry CC(C)c1ccc([C@](O)(c2cncc(CCC(O)C3CCOCC3)c2)C2(C)CN(C)C2)cc1 (some centres unmarked) [Example 63] .
[out] 6.22

----------
# tested on: human CCR6 (Homo sapiens, UniProt P51684)
# Construct: expressed in transfected cells; host or cells: HEK-293
# protocol description: FLIPR assay (inhibition of CCL20-induced calcium signal)
# Format: cell-based
# recorded conditions: HEK-293 cells expressing human CCR6; mean values where determined several times; read-out: FLIPR IC50
Criterion: IC50 strictly under 70 nM. Met: 1.0. Not met: 0.0.

[in] # check: IC50 < 70 nM for CC(=O)N1CCC(c2nc(-c3cncc([C@@](O)(c4ccc(C(C)C)cc4)C4(F)CN(C5CC5)C4)c3)no2)CC1
[out] 1.0

[in] # check: IC50 < 70 nM for [2H]C([2H])([2H])C(=O)N1CCC(c2nc(-c3cncc([C@@](O)(c4ccc(C(C)C)cc4)C4(C)CN(C)C4)c3)no2)CC1
[out] 0.0

[in] # check: IC50 < 70 nM for Cc1cccc(C(C)(O)CCc2cc([C@@](O)(c3ccc(C(C)C)cc3)C3(C)CN(C)C3)cnn2)n1 (some centres unmarked)
[out] 0.0

[in] # check: IC50 < 70 nM for CC(C)c1ccc([C@](O)(c2cncc(N(C)CCOCc3ccccc3)c2)C2(C)CN(C)C2)cc1
[out] 1.0

[in] # check: IC50 < 70 nM for Cc1nc(-c2cncc([C@@](O)(c3ccc(C(C)C)cc3)C3(C)CN(C)C3)c2)no1
[out] 1.0

[in] # check: IC50 < 70 nM for CC(C)c1ccc([C@](O)(c2cncc(C#CC3(c4ccc(F)cc4)CC3)c2)C2(C)CN(C)C2)cc1
[out] 1.0

[in] # check: IC50 < 70 nM for CC(C)Oc1ccc(C(O)(c2cncc(N3CCCC3)c2)C2(C)CN(C)C2)cc1 (centres unmarked)
[out] 0.0

[in] # check: IC50 < 70 nM for CC(C)c1ccc([C@](O)(c2cncc(-c3noc(C4CCN(S(=O)(=O)C(C)C)CC4)n3)c2)C2(C)CN(C)C2)cc1
[out] 1.0

[in] # check: IC50 < 70 nM for CC(C)c1ccc([C@](O)(c2cncc(CCC3(O)CCOCC3)c2)C2(C)CN(C)C2)cc1
[out] 0.0

[in] # check: IC50 < 70 nM for Cc1ccc(C2CC(=O)N(c3cncc([C@@](O)(c4ccc(C(C)C)cc4)C4(C)CN(C)C4)c3)C2)cn1 (some centres unmarked)
[out] 0.0

[in] # check: IC50 < 70 nM for CC(C)c1ccc([C@](O)(c2cncc(N3CCCC(O)C3)c2)C2(C)CN(C)C2)cc1 (some centres unmarked)
[out] 0.0

[in] # check: IC50 < 70 nM for COCCC1CC(=O)N(c2cncc([C@@](O)(c3ccc(C(C)C)cc3)C3(C)CN(C)C3)c2)C1 (some centres unmarked)
[out] 0.0

[in] # check: IC50 < 70 nM for CCCc1ccc([C@](O)(c2cncc(-c3noc(C(C)(C)O)n3)c2)C2(C)CN(C)C2)cc1
[out] 1.0

[in] # check: IC50 < 70 nM for CCc1cc([C@@](O)(c2ccc(C(C)C)cc2)C2(C)CN(C)C2)ccn1
[out] 0.0

[in] # check: IC50 < 70 nM for CC(C)c1ccc([C@](O)(c2cncc(-c3noc(CC#N)n3)c2)C2(C)CN(C)C2)cc1
[out] 0.0

[in] # check: IC50 < 70 nM for CC(C)c1ccc([C@](O)(c2ccnc(N3C[C@@H](F)[C@@H](F)C3)c2)C2(C)CN(C)C2)cc1
[out] 1.0

[in] # check: IC50 < 70 nM for CC(=O)NC(C)(C)c1nc(-c2cncc([C@@](O)(c3ccc(C(C)C)cc3)C3(C)CN(C)C3)c2)no1
[out] 0.0

[in] # check: IC50 < 70 nM for CC(C)c1ccc([C@](O)(c2cncc(N3CC(Cc4ccccc4)OC3=O)c2)C2(C)CN(C)C2)cc1 (some centres unmarked)
[out] 1.0

[in] # check: IC50 < 70 nM for COc1ncc(C(O)(c2ccc(C(C)C)cc2)C2(C)CN(C)C2)cn1 (centres unmarked)
[out] 0.0

[in] # check: IC50 < 70 nM for CN1CC(C)([C@](O)(c2ccc(C3(C(F)(F)F)CC3)cc2)c2cncc(N3CCCC3)c2)C1
[out] 1.0

[in] # check: IC50 < 70 nM for CC(C)c1ccc([C@](O)(c2cncc(C#CC(C)(C)N3CCNC3=O)c2)C2(C)CN(C)C2)cc1
[out] 1.0

[in] # check: IC50 < 70 nM for CC(C)c1ccc([C@](O)(c2cncc(-c3noc(COC4(C)CCOCC4)n3)c2)C2(C)CN(C)C2)cc1
[out] 1.0

[in] # check: IC50 < 70 nM for CC(C)c1ccc([C@](O)(c2cncc(OC3CCCCC3)c2)C2(C)CN(C)C2)cc1
[out] 1.0
